- tested-target: T1, recombinant human IL-6R-extracellular domain (ECD) (human, UniProt P08887 20-365)
- T1 construct: extracellular domain; also called IL-6R-ECD
- T1 sequence (looked up): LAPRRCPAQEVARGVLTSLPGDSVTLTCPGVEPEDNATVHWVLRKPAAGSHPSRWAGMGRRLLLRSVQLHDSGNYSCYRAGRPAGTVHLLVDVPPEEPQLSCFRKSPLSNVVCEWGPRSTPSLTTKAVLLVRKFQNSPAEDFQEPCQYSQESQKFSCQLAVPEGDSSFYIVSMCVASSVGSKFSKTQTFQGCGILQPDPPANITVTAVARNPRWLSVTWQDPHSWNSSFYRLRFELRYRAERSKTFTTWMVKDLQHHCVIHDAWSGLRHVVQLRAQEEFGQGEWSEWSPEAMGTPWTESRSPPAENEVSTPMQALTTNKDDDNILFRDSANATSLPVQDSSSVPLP
- protocol-notes: SPR
assay-metric: koff

Name the recorded koff for clone 36 rabbit anti-IL-6R antibody (antibody, V domains shown) VH: QSVEESGGRLVTPGTPLTLTCTVSGFSLSSYYMSWVRQAPGKGLEWIGITTTSTNTFYASWAKGRFTISKTSATVDLKITSPTIEDTATYFCARYGGNSAYYAFSLWGQGTLVTVSS VL: QVLTQTASSVSAAVGGTVTISCQSSQSVYNNNYLAWFQQKPGQPPKLLIYGASNLASGVPSRFKGSGSGTQFTLTISDLECDNAATYYCQGYYNGVIFVFGGGTEVVVK .
0.000342 s⁻¹
